Biological target: T1, TAF1 ZnC (Homo sapiens, UniProt P21675 1234-1303)
T1 sequence: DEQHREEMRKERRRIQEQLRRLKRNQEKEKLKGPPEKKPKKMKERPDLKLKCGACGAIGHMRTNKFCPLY
Test: BLI; 0.2 mM dI:dC, 5 mM Mg2+; BLI: 10 mM HEPES pH 7.9, 5 mM MgCl2, 100 mM NaCl, 10% glycerol, 0.1% ovalbumin, 0.2 mM dI:dC, 30 °C; EMSA: 10 mM HEPES pH 7.9, 5 mM MgCl2, 100 mM NaCl, 10% glycerol, 20 mM tetrasodium pyrophosphate (so in the source), 0.2 mM dI:dC, 25 °C
Settings: protein: recombinant; tags: His-GB1; label: 5'-biotin (BLI); 5'-32P (EMSA); blunt
recorded_metric: pKd
Conceptually, pKd converts a concentration in mol/L into minus its log10.

response.value for IMD (Inr, MTE, DPE of super core promoter) (dsDNA) DNA 1: GTCCTCAGTCGCGATCGAACACTCGAGCCGAGCAGACGTGCCTA DNA 2: TAGGCACGTCTGCTCGGCTCGAGTGTTCGATCGCGACTGAGGAC (field: pKd) = 6.46
